# system_name: UniProtKB P00735
# test_name: Antithrombin activity: inhibition of fibrin formation from fibrinogen
# Type: biochemical
Counter-ions that a name gives are not always drawn.
measurement_label: IC50

Please review the entries below; each comes with its answer.
* NC[C@H]1CC[C@H](C(=O)N[C@@H](Cc2ccccc2)C(=O)Nc2ccc(C(=O)c3ccccc3)cc2)CC1 | > 50 µM
* NCc1ccc(C(=O)N[C@@H](Cc2ccc(OCc3ccccc3)cc2)C(=O)NCc2ccncc2)cc1 [Compound No. 96, dihydrochloride] | > 250 µM
* CC(=O)c1ccc(NC(=O)C(Cc2ccc(OCc3ccccc3)cc2)NC(=O)c2ccc(CN)cc2)cc1 (centres unmarked) | > 50 µM
* CC1CCC(NC(=O)C(Cc2ccc(OCc3ccc(F)cc3)cc2)NC(=O)c2ccc(CN)cc2)CC1C (centres unmarked) | > 50 µM
* CC(=O)c1ccc(NC(=O)[C@H](Cc2ccc([N+](=O)[O-])cc2)NC(=O)[C@H]2CC[C@H](CN)CC2)cc1 [compound 130, hydrochloride] | > 400 µM

The reported IC50 of the molecule "CC(=O)c1ccc(NC(=O)[C@H](Cc2ccc(OC(=O)OCc3ccccc3)cc2)NC(=O)[C@H]2CC[C@H](CN)CC2)cc1" was > 100 µM

Per the records, this molecule ( "CC(=O)c1ccc(NC(=O)[C@H](Cc2ccc(OCc3cccc(F)c3)cc2)NC(=O)[C@H]2CC[C@H](CN)CC2)cc1" ) has IC50 equal to > 100 µM

Per the records, this molecule ( NCc1ccc(C(=O)NC(Cc2ccc(OCc3ccccc3)cc2)C(=O)NCc2ccc(F)cc2)cc1 (centres unmarked) ) has IC50 equal to > 50 µM

molecule "CC(=O)c1ccc(NC(=O)[C@H](Cc2ccc(OCc3cccc([N+](=O)[O-])c3)cc2)NC(=O)[C@H]2CC[C@H](CN)CC2)cc1" , IC50 observed: > 100 µM

Sure, the documented IC50 for CC1CCC(NC(=O)[C@H](Cc2ccc(OCc3ccccc3)cc2)NC(=O)c2ccc(CN)cc2)CC1 (some centres unmarked) is > 50 µM
